system: SK-MEL-5; assay: NCI tumour cell line growth inhibition, 48 h
Calls of active or inactive are those of the source. Cut-off read from the data, not from the text of the source: active = GI50 up to about 1.1 µM and inactive = higher.
Outcome codes: Y = active, N = inactive

COMPOUND: CC(C)=C[C@H]1C[C@H](C)[C@H]2CC[C@H](C)c3c2c1c(C)c1ncoc31
TARGET_OR_SYSTEM: SK-MEL-5
ASSIGNED_LABEL: N

COMPOUND: COc1ccc(/C=C2\CN(C)C/C(=C\c3ccc(OC)c(OC)c3OC)C2=O)c(OC)c1OC
TARGET_OR_SYSTEM: SK-MEL-5
ASSIGNED_LABEL: Y

COMPOUND: CCOC(=O)CC1C(O)C(=O)N(C)C1c1ccccc1 (configuration not stated)
TARGET_OR_SYSTEM: SK-MEL-5
ASSIGNED_LABEL: N

COMPOUND: CN(CCc1ccc(Cl)c(Cl)c1)CCN(C)CCN1CCCC1
TARGET_OR_SYSTEM: SK-MEL-5
ASSIGNED_LABEL: N

COMPOUND: Cc1ccc(N/N=C2\C3=C(CCC(C)(C)O3)C(=O)c3ccccc32)cc1
TARGET_OR_SYSTEM: SK-MEL-5
ASSIGNED_LABEL: N

COMPOUND: O=C(O)c1cccc2cccc(-c3cccc4cccc(C(=O)O)c34)c12
TARGET_OR_SYSTEM: SK-MEL-5
ASSIGNED_LABEL: N

COMPOUND: COc1ccc(C(=O)C(CC2C(=O)CC(C)(C)C(C(=O)C(=O)Nc3c(C)cccc3C)C2=O)c2ccc(OC)cc2)cc1 (configuration not stated)
TARGET_OR_SYSTEM: SK-MEL-5
ASSIGNED_LABEL: N

COMPOUND: O=C1c2cn[nH]c2N=C(Nc2ccccc2)C1/N=C/c1ccc([N+](=O)[O-])cc1 (configuration not stated)
TARGET_OR_SYSTEM: SK-MEL-5
ASSIGNED_LABEL: N

COMPOUND: CC(=O)OCC1OC(N2C(c3ccccc3)=CC(c3ccco3)C(C#N)=C2S)C(OC(C)=O)C(OC(C)=O)C1OC(C)=O (configuration not stated)
TARGET_OR_SYSTEM: SK-MEL-5
ASSIGNED_LABEL: N

COMPOUND: O=C(O)c1cc(-c2ccncc2)nc2ccccc12
TARGET_OR_SYSTEM: SK-MEL-5
ASSIGNED_LABEL: N

COMPOUND: CC(=O)N(N=O)c1ccc(N(N=O)C(C)=O)cc1
TARGET_OR_SYSTEM: SK-MEL-5
ASSIGNED_LABEL: N

COMPOUND: CCOc1ccc(NC(=O)C(=O)CC(=O)C2=C(C)Nc3ccccc3S2)cc1
TARGET_OR_SYSTEM: SK-MEL-5
ASSIGNED_LABEL: N

COMPOUND: CN(C)CCc1c2c(nc3ccccc13)C(=O)c1cccnc1C2=O
TARGET_OR_SYSTEM: SK-MEL-5
ASSIGNED_LABEL: Y

COMPOUND: CC(=O)Nc1cc(CN2CCCCC2)c(O)c2ncccc12
TARGET_OR_SYSTEM: SK-MEL-5
ASSIGNED_LABEL: N

COMPOUND: CC1=CC(=O)c2cccc(O)c2C1=O
TARGET_OR_SYSTEM: SK-MEL-5
ASSIGNED_LABEL: N

COMPOUND: c1ccc2c(c1)Nc1ccccc1[P+]21c2ccccc2Nc2ccccc21
TARGET_OR_SYSTEM: SK-MEL-5
ASSIGNED_LABEL: Y

COMPOUND: O=C(C1=C(C(=O)c2ccccc2)SC2(S1)C(C(=O)c1ccccc1)=C(C(=O)c1ccccc1)Sc1c2ssc1=O)c1ccccc1
TARGET_OR_SYSTEM: SK-MEL-5
ASSIGNED_LABEL: N
